Each record here notes measured TGI.
System: HS 578T breast
Protocol Details: NCI tumour cell line growth inhibition, 48 h

Compound	TGI
CC(Br)C(=O)Nc1ccc(C(=O)O)c(O)c1 (stereo not drawn)	> 100 µM
CN(C)CCN(C(=Nc1ccccc1)N1CCCC1)c1ccccc1	> 100 µM
Clc1nc(Cl)c2ncn(Cc3ccc(Cn4cnc5c(Cl)nc(Cl)nc54)cc3)c2n1	> 40.2 µM
COc1ccc(C(=O)Nc2ccc3oc(-c4ccccc4)nc3c2)cc1	> 100 µM
Cc1cc2c(cc1N)C(C)C1(CCC(=O)N2Cc2ccccc2)OCCO1 (stereo not drawn)	> 100 µM
Cc1cc(-c2nc3cccc(F)c3s2)ccc1N	> 90.8 µM
COc1cc2c(c(OC3OC(CO)C(O)C(O)C3O)c1)C(=O)CC(c1ccc(O)cc1)O2 (stereo not drawn)	> 100 µM
CCOC(=O)c1c(N2CCCC2)[nH]c(=O)c(C(c2cccs2)c2c(O)c(C(=O)OCC)c(N3CCCC3)[nH]c2=O)c1O	> 100 µM
NCCSCCc1ccccc1	> 100 µM
COc1ccccc1CNC(=O)[C@H](Cc1ccc(O)cn1)NC(C)=O	> 100 µM
COc1ccc(OC)c(Nc2nc(-c3c(C)nc4sccn34)cs2)c1	> 100 µM
CCOC(=O)C(=O)C(CCC(=O)c1ccc2ccccc2c1O)C(=O)OCC (stereo not drawn)	> 100 µM
N#Cc1sc2c(c1O)c(=O)n(-c1ccccc1)c(=S)n2-c1ccccc1	> 100 µM

* * *

Test system: LOX IMVI melanoma
Protocol Details: NCI tumour cell line growth inhibition, 48 h
Could you label it class 1 if measured TGI is 30 µM or higher, and class 0 otherwise?

Compound	Subject Of Test	Assigned Class
FC1=C2CCCCCC2SC1(F)F (stereo unspecified)	LOX IMVI melanoma	class 1
COc1ccc(N2C(=O)CC(c3c[nH]c4ncccc34)C2=O)cc1 (stereo unspecified)	LOX IMVI melanoma	class 1
CC1=C(/C=C/C(C)=C/C=C/C(C)=C/CO)C(C)(C)CCC1	LOX IMVI melanoma	class 1
CC#CC(O)(C(=O)OC1CC2CCC(C1)N2C)C1CCCC1 (stereo unspecified)	LOX IMVI melanoma	class 1
Cn1c2ccccc2c(=O)c2[nH]c3ccccc3c21	LOX IMVI melanoma	class 1
O=C(NNC(=O)c1ccccc1O)c1ccc(O)cc1	LOX IMVI melanoma	class 1
CC1(C)[C@H]2Cc3cc(-c4cc5c(cn4)[C@@H]4C[C@H]([C@@H]5[C@@H]5c6cc(-c7cc8c(cn7)[C@@H]7C[C@H](C8)C7(C)C)ncc6[C@@H]6C[C@H]5C6(C)C)C4(C)C)ncc3[C@@H]1C2	LOX IMVI melanoma	class 1
CCOC(=O)C(=O)C(CCC(=O)c1ccc2ccccc2c1O)C(=O)OCC (stereo unspecified)	LOX IMVI melanoma	class 1
CCN(CC)CCSCCCNc1c2ccc(Cl)cc2nc2ccc(OC)cc12	LOX IMVI melanoma	class 0
CC(Br)C(=O)Nc1ccc(C(=O)O)c(O)c1 (stereo unspecified)	LOX IMVI melanoma	class 1
Cc1ccc(NC(=O)C(=O)Cc2cc[n+]([O-])cc2)cc1	LOX IMVI melanoma	class 1
Nc1ccc([C@H]2C(=O)N[C@H]3CCC[C@H]32)cc1	LOX IMVI melanoma	class 1
O=S(=O)(NCCNc1nccc(-c2c(-c3ccc(F)cc3)nc3sccn23)n1)c1ccccc1	LOX IMVI melanoma	class 1
COC(=O)c1ccc(NCc2cc(O)ccc2O)cc1	LOX IMVI melanoma	class 0
CCCCCCC(/C=N/O)C(C)(O)CCC (stereo unspecified)	LOX IMVI melanoma	class 1
Cc1cc(OCc2nnc3n2N=C(c2ccc(Cl)cc2Cl)CS3)ccc1Cl	LOX IMVI melanoma	class 1
C=C1c2c(Cl)ccc(O)c2C(O)=C2C(=O)[C@]3(O)C(O)=C(C(N)=O)C(=O)[C@@H](N(C)C)[C@@H]3[C@@H](O)[C@H]12	LOX IMVI melanoma	class 0
COc1ccc2c(c1)CCC(OS(=O)(=O)CC13CCC(CC1=O)C3(C)C)C2=O (stereo unspecified)	LOX IMVI melanoma	class 1
CC(=O)NNc1nc(C)c(C(=O)NNC(=O)C(=O)Nc2c(C)cccc2C(C)(C)C)s1	LOX IMVI melanoma	class 1
O=c1oc2ccc([N+](=O)[O-])cc2c(Nc2ccc3c(c2)S(=O)(=O)c2ccccc2O3)c1[N+](=O)[O-]	LOX IMVI melanoma	class 1
CC1=C(C(=O)Nc2ccc([N+](=O)[O-])cc2)C(c2ccccc2F)C(C(=O)Nc2ccc([N+](=O)[O-])cc2)=C(C)N1	LOX IMVI melanoma	class 1
CN(C)Cc1cc(N=Nc2ccc(Cl)cc2)ccc1OC(=O)c1ccccc1	LOX IMVI melanoma	class 0
C=C(C)C12CC3CC/C(=N/O)C(C1)C3(N1CCOCC1)C/C2=N/O (stereo unspecified)	LOX IMVI melanoma	class 1
Cc1nc(Nc2nc3ccccc3o2)nc(-c2cccc([N+](=O)[O-])c2)c1C(=O)Nc1ccc(F)c(Cl)c1	LOX IMVI melanoma	class 1
O=C1C=CC(CC(=O)c2ccc3ccccc3c2)O1 (stereo unspecified)	LOX IMVI melanoma	class 1
CCn1c2ccccc2c2cc(C(O)c3cccc4ncccc34)ccc21 (stereo unspecified)	LOX IMVI melanoma	class 0
C/C(=N\Nc1nc2ccccc2s1)c1cc(C)ncn1	LOX IMVI melanoma	class 1
C/C=C(\C)C(=O)N[C@H]1C(O)C[C@]2(C)C3CC[C@@]4(C)C(CC[C@@H]4C(C)N(C)C)C3CCC2C1O (stereo partly specified)	LOX IMVI melanoma	class 0
CC1=NN(C(=O)CC(=O)Nc2cccc(Cl)c2)C(=O)C1N=Nc1ccc(C(=O)O)cc1 (stereo unspecified)	LOX IMVI melanoma	class 1
CC1(C)OC(=O)C=C([O-])O1.CC1(C)OC(=O)C=C([O-])O1.CC[O-].CC[O-].[Ti+4]	LOX IMVI melanoma	class 1
C=CCCCc1ccc(C(O)CCCCCCCCCCCC)o1 (stereo unspecified)	LOX IMVI melanoma	class 1
Nc1n[nH]c(CCc2nc(N)n[nH]2)n1	LOX IMVI melanoma	class 1
CCC(Oc1ccc(OC)c2ccccc(=O)c12)C(=O)O (stereo unspecified)	LOX IMVI melanoma	class 1
ClCc1ccc(Cn2cnc3c(Cl)nc(Cl)nc32)cc1	LOX IMVI melanoma	class 0
[Cl][Cd][Cl]	LOX IMVI melanoma	class 1
